test system: SK-MEL-5 cells; assay: IC50 assay, inhibition of cell proliferation and growth, SK-MEL-5; assay type: cell-based, human; settings: Homo sapiens; SK-MEL-5 melanoma cell line; neutral red or crystal violet; read-out: IC50 Concentrations, SK MEL-5
pIC50: −log10 of the molar value.

| molecule | target under test | comparison operator | pIC50 |
| --- | --- | --- | --- |
| C#CCNC(=O)c1cc([N+](=O)[O-])ccc1I [Ref. No. 8, N-(Propargyl) 2-Iodo-5-Nitro-Benzamide] | SK-MEL-5 cells | = | 4.04 |
| O=C(NC1=NCCS1)c1cc([N+](=O)[O-])ccc1I | SK-MEL-5 cells | = | 3.90 |
| NC(=O)c1cc(N)ccc1I | SK-MEL-5 cells | < | 3.30 |
| CCOC(=O)c1sc(NC(=O)c2cc([N+](=O)[O-])ccc2I)nc1C | SK-MEL-5 cells | = | 4.38 |
| C=CCNC(=O)c1cc([N+](=O)[O-])ccc1I [Ref. No. 7, N-(Allyl)-2-Iodo-5-Nitro-Benzamide] | SK-MEL-5 cells | = | 3.91 |
| Cc1cnc(NC(=O)c2cc([N+](=O)[O-])ccc2I)s1 | SK-MEL-5 cells | = | 4.82 |
| O=C(Nc1nccs1)c1cc([N+](=O)[O-])ccc1I | SK-MEL-5 cells | = | 4.34 |
